Experiment: gradient 5% acetonitrile 3 min, to 50% in 2 min, to 85% in 15 min, held 3 min, 100 µL/min
Conditions: column: Zorbax Extend-C18 2.1 x 50 mm; eluents: water / acetonitrile, 0.1% formic acid
Reported property: RP-LC retention time (s)

In [3]: df
Out[3]:
                                   molecule  observed_result
0  COc1ccc2nc3oc(C(=O)N4CCN(Cc5ccc6c(c5)OCO6)CC4)cc3cc2c1              670
1  COc1ccc(-c2cc(N3CCC(NC(=O)c4cccc(OC(F)(F)F)c4)C3)n[nH]2)cc1 (stereo not drawn)              828
2             Cc1ccc(-c2noc(Cn3ccnc3)n2)cc1              624
3  CC(C)CC(=O)Nc1ccc(OCc2cc(C(=O)NC(C)C)no2)cc1              816
4   CCN1CCC(N(Cc2cccs2)C(=O)Nc2ccccc2Br)CC1              679
5  Cc1cc(C)c(S(=O)(=O)N2CCCC2c2nncn2Cc2ccncc2)c(C)c1 (stereo not drawn)              617
6   O=C(CN1C(=O)NC2(CCCCC2)C1=O)NCc1ccccc1F              733
7  CCOc1ccc(-c2ccc(=O)n(CCNC(=O)c3sc(C)nc3C)n2)cc1              672
